Reference for the values: PubChem BioAssay (NCI)

- Tested on: SNB-75 CNS
- measurement_notes: NCI-60 one-dose screen, 48 h (100 = growth as untreated, 0 = no growth, -100 = all killed)
- assay_conditions: 10 µM
About 83,000 compounds went through this panel and 20% of them were active in at least one assay; those are over-represented in the sample as a whole.
Class boundaries, taken from values of growth, are as follows: low-valued = under 50%, mid-valued = from 50% up to 80%, high-valued = 80% and over

Problem: Please indicate the class for "O=C1/C(=C/c2ccc(O)cc2)Cc2ccc(Cl)cc21" based on its growth.
Result: mid-valued

Problem: Please indicate the class for COc1cc(C2CC(=O)Nc3c2c(C)nn3-c2nc3ccccc3[nH]2)cc(OC)c1O (stereo not given) based on its growth.
Result: low-valued

====

- Test system: HS 578T breast
- measurement_notes: NCI-60 one-dose screen, 48 h (100 = growth as untreated, 0 = no growth, -100 = all killed)
- assay_conditions: 10 µM
This is part of a sample that, as a whole, favours compounds with a hit. Of some 83,000 tested, about 20% had one in any assay.
Assign class by growth: not lower than 30% means satisfied; lower than 30% means not satisfied.

# example entries with known answers
# chemical_smiles, discrete_label
measured = [
    ("Cc1cc(C#Cc2ccccc2)ccc1-n1c(/C=C/c2cc(O)ccc2O)nc2ccccc2c1=O", "satisfied"),
    ("CC(=O)c1ccc(NCn2nc(-c3ccc(Cl)cc3)oc2=S)cc1", "satisfied"),
    ("C(=C\\c1nc2ccccc2s1)/c1ccc(N2CCOCC2)s1", "satisfied"),
    ("Cc1ccc2nc(-c3ccc(OCC(=O)N=Nc4c(O)[nH]c5ccccc45)cc3)[nH]c2c1", "satisfied"),
]

Problem: # bool: growth of "COc1cc(-c2c(C#N)c(N)n3c(nc4ccccc43)c2C#N)cc(Br)c1OC" >= 30%
Result: not satisfied

====

- System: BT-549 breast
- measurement_notes: NCI-60 one-dose screen, 48 h
- assay_conditions: 10 µM
About 83,000 compounds went through this panel and 20% of them were active in at least one assay; those are over-represented in the sample as a whole. Activity calls are given as the source filed them. How the source made its calls: active means growth percent below 10; inactive means the rest.
Would you mind answering with one of these outcomes? active, inactive

# example entries with known answers
# compound, discrete_label
measured = [
    ("CC(C)(C)c1ccc(OCCCCCCN2CCNCC2)cc1", "inactive"),
    ("CNC(=O)c1cc(Oc2ccc(NC(=O)Nc3ccc(Cl)c(C(C)(C)C)c3)c(F)c2)ccn1", "inactive"),
    ("COc1ccc(N2CCN(c3nc(-c4ccccc4)c(C#N)c(=O)[nH]3)CC2)cc1", "inactive"),
    ("C=C1C(=O)O[C@H]2[C@H]1CC/C(COC(=O)OCCCCCOC(=O)OC/C1=C/CC[C@@]3(C)O[C@H]3[C@H]3OC(=O)C(=C)[C@@H]3CC1)=C\\CC[C@@]1(C)O[C@@H]21", "active"),
    ("CCCC(C)c1ccc(OCCCCCCN2CCNCC2)cc1 (stereo unspecified)", "inactive"),
    ("O=C(Nc1cccc(-c2nc3ccccc3[nH]2)c1)c1cccc(NC(=O)c2ccco2)c1", "inactive"),
    ("COc1ccc(NC(=O)c2sc3nc4c(cc3c2N)C(O)CCC4)cc1 (stereo unspecified)", "inactive"),
    ("COCCOC(=O)NC(=O)Nc1ccc(/C(=N/O)c2ccc(Cl)cc2)cc1", "inactive"),
]

Problem: Hi team, can someone confirm the assay call for COC1OC2COC(c3ccccc3)OC2C(=O)C1NC(=O)c1ccccc1 (stereo unspecified) ?
Result: inactive

Problem: Hi team, can someone confirm the assay call for "Cc1ccc(Cl)cc1Nc1nc(C(F)(F)F)ccc1C(=O)N/N=C/c1c(Cl)cccc1Cl" ?
Result: inactive

Problem: Hi team, can someone confirm the assay call for "Brc1ccc(-c2cn3ccnc3c(-c3ccc(Br)cc3)n2)cc1" ?
Result: inactive

Problem: Hi team, can someone confirm the assay call for COC(=O)C1(C(=O)OC)C2C(=O)C3C(C21)C3(C(=O)OC(C)(C)C)C(=O)OC(C)(C)C (stereo unspecified) ?
Result: inactive

Problem: Hi team, can someone confirm the assay call for "O=C1CC[C@@H](C(=O)N[C@H]2CSSC[C@@H](C(=O)NCCc3ccccc3)NC(=O)[C@H](Cc3ccccc3)NC(=O)[C@@H]3CCCN3C(=O)[C@@H]3CCCN3C2=O)N1" ?
Result: inactive

Problem: Hi team, can someone confirm the assay call for "COc1cccc2c1O/C(=C\c1ccc([N+](=O)[O-])s1)C2=O" ?
Result: active

Problem: Hi team, can someone confirm the assay call for "c1ccc(C2CCCCC2)c(OCCCCCN2CCNCC2)c1" ?
Result: inactive

Problem: Hi team, can someone confirm the assay call for "CC(=O)Nc1ccc(Sc2ccc(NC(C)=O)cc2)cc1" ?
Result: inactive

Problem: Hi team, can someone confirm the assay call for "CCc1c(C)[nH]c(=O)c(C(N)=O)c1C#N" ?
Result: inactive

Problem: Hi team, can someone confirm the assay call for "CCOC(=O)[C@@H](Cc1ccccc1)NC(=O)c1[nH]c2ccc(Cl)cc2c(=O)c1C" ?
Result: inactive

Problem: Hi team, can someone confirm the assay call for "CC(=O)/C(=C\c1ccc(Cl)cc1)c1ccccc1" ?
Result: inactive

Problem: Hi team, can someone confirm the assay call for COc1cc(C2C=C(c3ccc(Cl)cc3)N=C3SC(C)=CN32)cc(OC)c1OC (stereo unspecified) ?
Result: inactive

====

- Tested on: SF-295 CNS
- measurement_notes: NCI-60 one-dose screen, 48 h (100 = growth as untreated, 0 = no growth, -100 = all killed)
- assay_conditions: 10 µM
About 83,000 compounds went through this panel and 20% of them were active in at least one assay; those are over-represented in the sample as a whole.
experimental_readout: growth (%)
Give the number; % is assumed, so skip it.

Use these answered entries as a reference point.
# chemical_smiles, reading
measured = [
    ("O=C(N/N=C/c1ccccc1O)c1ccccc1", 26),
    ("COc1cc(Nc2ccnc(N3CCN(c4ccnc5cc(Cl)ccc45)CC3)n2)cc(OC)c1", -19.2),
]

Problem: Reported growth for "CCOC(=O)Nc1ccc2c(c1)C(=O)N(CC)c1ccccc1O2" : what is it?
Result: 3.36

Problem: Reported growth for "CC1(C)CC(OCCCC[P+](c2ccccc2)(c2ccccc2)c2ccccc2)CC(C)(C)N1O" : what is it?
Result: -56

Problem: Reported growth for "CCOC(=O)c1cc2c(n1Cc1cc(OC)cc(OC)c1)-c1oncc1CC2" : what is it?
Result: -4.53

Problem: Reported growth for "Cc1ccc2c3c(cccc13)-c1ccccc1C2=O" : what is it?
Result: 95.1

Problem: Reported growth for "COc1cc(OC)cc(-c2n/c(=C\c3c(O)[nH]c4ccc(OC)cc34)cc3c2=Nc2ccccc2-3)c1" : what is it?
Result: 98.4

Problem: Reported growth for "N#C/C(=C/c1cc([N+](=O)[O-])ccc1Cl)C(N)=O" : what is it?
Result: 98.1

Problem: Reported growth for "Cc1ccccc1[P+](Cc1ccccc1)(c1ccccc1)c1ccccc1" : what is it?
Result: 11

Problem: Reported growth for "COc1cccc2c1O/C(=C\c1ccc([N+](=O)[O-])s1)C2=O" : what is it?
Result: 97.2

====

- Tested on: NCI/ADR-RES ovarian
- measurement_notes: NCI-60 one-dose screen, 48 h (100 = growth as untreated, 0 = no growth, -100 = all killed)
- assay_conditions: 10 µM
- Description: Growth inhibition of the NCI/ADR-RES human […] tumor cell line is measured as a screen for anti-cancer activity. Cells are grown in 96 well plates and exposed to the test compound for 48 hours. Compounds are tested at a single concentration, which is 10^-5 M for most compounds. The reported endpoint is percent growth (GI% or GIPRCNT), where numbers from 0 - 100% represent growth inhibition, and numbers from -100% - 0 represent cell death. For example, a value of 40 represents 60% growth inhibition. […]
Compounds without any hit were thinned out: in the full panel of roughly 83,000, 20% have a hit.
experimental_readout: growth (%)
Give the number; % is assumed, so skip it.

Use these answered entries as a reference point.
# molecule, reading
records = [
    ("C#C[C@]1(O)CC[C@H]2[C@@H]3CC[C@H]4CC(F)(F)CC[C@]4(C)[C@H]3CC[C@@]21C", 92.2),
    ("COc1cc(Cn2c(-c3ccccc3)c(Cl)c3c2-c2oncc2CC3)cc(OC)c1", 47.6),
]

Problem: Reported growth for "CS(=O)(=O)Nc1ccc([N+](=O)[O-])cc1Oc1ccccc1" : what is it?
Result: 96.8

Problem: Reported growth for "COc1cc(OC)cc(-c2n/c(=C\c3c(O)[nH]c4ccc(OC)cc34)cc3c2=Nc2ccccc2-3)c1" : what is it?
Result: 69.4

Problem: Reported growth for CC1=CC2OC34COC3CC(OC(=O)C(F)(F)F)C4(C)C2(C)CC1 (centres undefined) : what is it?
Result: 105

Problem: Reported growth for Nc1nc2c(ncn2C2OC3COP(=O)(O)OC4C(COP(=O)(O)OC2C3O)OC(n2cnc3c(N)ncnc32)C4O)c(=O)[nH]1 (centres undefined) : what is it?
Result: 102

Problem: Reported growth for "O=[N+]([O-])c1ccc2c(c1)Cc1cc(I)ccc1-2" : what is it?
Result: 104

Problem: Reported growth for "COc1ccc(/C=C(\c2cc(OC)c(OC)c(OC)c2)c2nnc(-c3cccs3)o2)cc1" : what is it?
Result: 66.4

Problem: Reported growth for "Nc1ncc(-c2ccc(C(F)(F)F)cc2)c(NC2CCCCCC2)n1" : what is it?
Result: 56.9
